system: Bacillus cereus; assay: Antibacterial activity against Bacillus cereus at 100 ug/disc after 24 hrs by disc diffusion method; assay type: functional; settings: read-out: DIZ
Would you please tag the item label 1 when its zone of inhibition at 100 µg/disc is 20 mm or above, and label 0 when it is below?

// known answers, use as guide
>>> group("CCN1CCN(CC2SC(c3ccc(C(=O)O)cc3)N(c3ccc(Nc4nc(Oc5cc(=O)n(C)c6ccccc56)nc(N(C)C)n4)cc3)C2=O)CC1 (stereo not drawn)")
"label 1"
>>> group("CCN1CCN(CC2SC(c3ccc(O)cc3O)N(c3ccc(Nc4nc(Oc5cc(=O)n(C)c6ccccc56)nc(N(C)C)n4)cc3)C2=O)CC1 (stereo not drawn)")
"label 0"
>>> group("CCN1CCN(CC2SC(c3ccccc3[N+](=O)[O-])N(c3ccc(Nc4nc(Oc5cc(=O)n(C)c6ccccc56)nc(N(C)C)n4)cc3)C2=O)CC1 (stereo not drawn)")
"label 0"
>>> group("CCN1CCN(CC2SC(c3ccc(C)cc3)N(c3ccc(Nc4nc(Oc5cc(=O)n(C)c6ccccc56)nc(N(C)C)n4)cc3)C2=O)CC1 (stereo not drawn)")
"label 1"
>>> group("CCN1CCN(CC2SC(c3ccccc3Br)N(c3ccc(Nc4nc(Oc5cc(=O)n(C)c6ccccc56)nc(N(C)C)n4)cc3)C2=O)CC1 (stereo not drawn)")
"label 0"

Lookup: For this compound, is measured zone of inhibition at 100 µg/disc 20 mm or higher? CCN1CCN(CC2SC(c3ccc(OC)cc3)N(c3ccc(Nc4nc(Oc5cc(=O)n(C)c6ccccc56)nc(N(C)C)n4)cc3)C2=O)CC1 (stereo not drawn)
Found: label 1

Lookup: Query CCN1CCN(CC2SC(c3ccc(Cl)cc3)N(c3ccc(Nc4nc(Oc5cc(=O)n(C)c6ccccc56)nc(N(C)C)n4)cc3)C2=O)CC1 (stereo not drawn) next
Found: label 1

Lookup: Query CCN1CCN(CC2SC(c3ccc(Cl)cc3Cl)N(c3ccc(Nc4nc(Oc5cc(=O)n(C)c6ccccc56)nc(N(C)C)n4)cc3)C2=O)CC1 (stereo not drawn) next
Found: label 0

----------
test system: Shigella flexneri; assay: Antibacterial activity against Shigella flexneri at 100 ug/disc after 24 hrs by disc diffusion method; format: functional; settings: read-out: DIZ
Would you please tag the item condition met when its zone of inhibition at 100 µg/disc is 20 mm or above, and condition not met when it is below?

>>> group("CCN1CCN(CC2SC(c3ccccc3)N(c3ccc(Nc4nc(Oc5cc(=O)n(C)c6ccccc56)nc(N(C)C)n4)cc3)C2=O)CC1 (stereo not given)")
"condition not met"
>>> group("CCN1CCN(CC2SC(c3ccc(OC)cc3)N(c3ccc(Nc4nc(Oc5cc(=O)n(C)c6ccccc56)nc(N(C)C)n4)cc3)C2=O)CC1 (stereo not given)")
"condition met"

Lookup: For this compound, is measured zone of inhibition at 100 µg/disc 20 mm or higher? CCN1CCN(CC2SC(c3ccc(O)cc3O)N(c3ccc(Nc4nc(Oc5cc(=O)n(C)c6ccccc56)nc(N(C)C)n4)cc3)C2=O)CC1 (stereo not given)
Found: condition not met

Lookup: Query CCN1CCN(CC2SC(c3cccc(F)c3)N(c3ccc(Nc4nc(Oc5cc(=O)n(C)c6ccccc56)nc(N(C)C)n4)cc3)C2=O)CC1 (stereo not given) next
Found: condition met

Lookup: Query CCN1CCN(CC2SC(c3ccc(Br)cc3)N(c3ccc(Nc4nc(Oc5cc(=O)n(C)c6ccccc56)nc(N(C)C)n4)cc3)C2=O)CC1 (stereo not given) next
Found: condition not met
